Tested on: UACC-62 melanoma
METHOD: NCI tumour cell line growth inhibition, 48 h
ASSAY METRIC: TGI (µM)
The reply should be a number in µM, with the unit left off.

As a guide, the following entries are already answered.
>>> measured_value("CC[C@H](C)C(=O)O[C@H]1CCC=C2C=C[C@H](C)C(CCC3C[C@@H](O)CC(=O)O3)[C@H]21 (stereo partly specified)")
61.9
>>> measured_value("CC(=C(C(=O)O)C(=O)O)c1cc(-c2cccs2)cc(-c2ccc(Cl)cc2)c1O")
35.7
>>> measured_value("COc1ccc(/C=C/[N+](=O)[O-])cc1")
39.7
>>> measured_value("CC1OC(O)CC(OC(=O)c2ccccc2)C1OC(=O)c1ccccc1 (stereo unspecified)")
31.5
>>> measured_value("Cn1cc(C2=C(c3c4n(c5ccccc35)CCC(CN)CC4)C(=O)NC2=O)c2ccccc21 (stereo unspecified)")
7.28
>>> measured_value("CN(C)CC1CCn2c(c(C3=C(c4cn(C)c5ccccc45)C(=O)NC3=O)c3ccccc32)C1 (stereo unspecified)")
7.49
>>> measured_value("C/C(=C\\c1c[nH]c2ccccc12)[N+](=O)[O-]")
15.9
>>> measured_value("COc1cc([C@H]2Oc3cc(O)c4c(=O)cc(-c5ccc(O)cc5)oc4c3O[C@@H]2CO)ccc1O")
34.2

For `NC(=O)Oc1cc(OC(N)=O)cc(N(CCCl)CCCl)c1` , what is its reported TGI?
18.4

====

Test system: SK-MEL-5 melanoma
METHOD: NCI tumour cell line growth inhibition, 48 h; in the data active = GI50 below about 0.43 µM; inactive = the rest
Allowed answers: active, inactive

Example cases with answers are listed next.
>>> assigned_class("COc1ccc(F)cc1C(=O)c1cnc(NC2CCN(S(C)(=O)=O)CC2)nc1N")
"inactive"
>>> assigned_class("COc1ccc2c(c1)Cc1c-2c(NN)nc2ccccc12")
"inactive"
>>> assigned_class("C#C[C@@]1(O)[C@@H](CO)O[C@@H](n2cc(F)c3c(N)ncnc32)[C@@H]1O")
"active"
>>> assigned_class("CO[C@H]1CC[C@@]2(C)C(=CC[C@H]3[C@@H]4C[C@H](O)C[C@@]4(C)CC[C@@H]32)C1")
"inactive"

Now consider a different compound.
Test call, this compound: `COc1ccc(Nc2ccnc(NCCCNc3ccnc4cc(Cl)ccc34)n2)cc1`
active

====

Test system: ACHN renal
METHOD: NCI tumour cell line growth inhibition, 48 h
Catalogue of compounds with associated TGI

For `O=C(NCC#CCO)C(F)(F)F` , what is its reported TGI?
> 100 µM

Consider next the compound `CCN(CC)CCOc1cc2c(C(=O)OC)c(C)oc2cc1C(C)=O` in the same way.
18.3 µM

Consider next the compound `O=C1/C(=C/C(Cl)=C/c2ccccc2)SC(=S)N1CCc1ccc(O)cc1` in the same way.
3.6 µM

Consider next the compound O=C(O)c1cccc(CC(Br)C(=O)O)c1 (stereo not given) in the same way.
> 100 µM

Consider next the compound CCOC(=O)C1=C(C)N(NC(=O)c2ccccc2)C2(O)CCCC12C(=O)OCC (stereo not given) in the same way.
> 100 µM

====

System: MOLT-4 leukemia
METHOD: NCI tumour cell line growth inhibition, 48 h
Catalogue of compounds with associated TGI

>>> measured_value("COC(=O)/C(=C/CC(N=C(c1ccccc1)c1ccccc1)C(=O)OC)N=C(c1ccccc1)c1ccccc1 (centres undefined)")
"> 100 µM"
>>> measured_value("COc1cc(C(=O)n2nc(N3CCN(C)CC3)c3cc(N)ccc32)cc(OC)c1OC")
"43.9 µM"
>>> measured_value("COc1cc(-c2c(C)c(C)nc(OC)c2C#N)cc(OC)c1OC")
"> 100 µM"

Let us examine a further case.
For Cc1ccc(S(=O)(=O)n2cnc(CC(NC(=O)C3CCC(=O)N3C(=O)OCc3ccccc3)C(=O)N3CCCC3C(=O)NN)c2)cc1 (centres undefined) , what is its reported TGI?
> 100 µM
